pIC50: −log10 of the molar value.
# pIC50 against C-C chemokine receptor type 5 (Homo sapiens), merged from multiple literature sources
Lab note: compare pIC50 against 6. Equal or greater, write 1.0. Smaller, write 0.0.

| COMPOUND | ASSIGNED_LABEL |
| --- | --- |
| CN(C[C@@H](CCN1CCC2(CC1)CC(O)c1ccccc12)c1cccc(Cl)c1)S(=O)(=O)c1ccccc1 (stereo partly drawn) | 0.0 |
| CN(C[C@@H](CCN1CCC2(CC1)CC(=O)c1ccccc12)c1cccc(Cl)c1)S(=O)(=O)c1ccccc1 | 0.0 |
| C[N+](C)(Cc1ccc(NC(=O)C2=Cc3cc(-c4ccc(N5CCCCC5)cc4)ccc3CCC2)cc1)C1CCOCC1 | 1.0 |
| CN(C[C@@H](CCN1CCC2(CC1)CNC(=O)c1ccccc12)c1ccc(Cl)c(Cl)c1)S(=O)(=O)c1cccc([N+](=O)[O-])c1 | 1.0 |
| CN(CC(CCN1CCC2(CC1)C[S+]([O-])c1ccccc12)c1cccs1)S(=O)(=O)c1ccccc1 (stereo not drawn) | 1.0 |
| CCS(=O)(=O)N1CCC(C(CCN2C[C@@H]3CN(C(=O)c4c(C)ncnc4C)C[C@@H]3C2)c2ccccc2)CC1 (stereo partly drawn) | 1.0 |
| C=CCN(C(=O)OCc1ccc([N+](=O)[O-])cc1)C1CCN(CCC(C)(CC(C)S(=O)(=O)c2ccccc2)c2ccccc2)CC1 (stereo not drawn) | 0.0 |

* * *

// read-out IC50, gathered for C-C chemokine receptor type 5 (Homo sapiens, UniProt P51681) from published studies
READOUT_NAME: IC50 (nM)

| MOLECULE | TGT | VALUE_MODIFIER | TEST_VALUE |
| --- | --- | --- | --- |
| C[N+](C)(Cc1ccc(NC(=O)C2=Cc3cc(-c4ccc(N5CCCC5)cc4)ccc3CCC2)cc1)C1CCOCC1 | C-C chemokine receptor type 5 (Homo sapiens, UniProt P51681) | = | 3.8 |
| CN1C(=O)c2ccccc2C12CCN(CC[C@H](CN(C)S(=O)(=O)c1ccccc1)c1cccc(Cl)c1)CC2 | C-C chemokine receptor type 5 (Homo sapiens, UniProt P51681) | = | 1500 |
| CN(C[C@@H](CCN1CCC2(CC1)CSc1ccccc12)c1ccc(Cl)c(Cl)c1)S(=O)(=O)c1ccccc1 | C-C chemokine receptor type 5 (Homo sapiens, UniProt P51681) | = | 400 |
| C=CCN(C(=O)OCc1ccc([N+](=O)[O-])cc1)C1CCN(CCC(CC(CC)S(=O)(=O)c2ccccc2)c2ccccc2)CC1 (stereo not drawn) | C-C chemokine receptor type 5 (Homo sapiens, UniProt P51681) | = | 7200 |
| CC(C)N(C)[C@@H]1CC[C@H](N2CC[C@H](NC(=O)c3cccc(C(F)(F)F)c3)C2=O)[C@H](N(C)S(C)(=O)=O)C1 | C-C chemokine receptor type 5 (Homo sapiens, UniProt P51681) | = | 1570 |
| CN(CC(CCN1CCC2(CC1)C[S+]([O-])c1ccccc12)C1CCCCC1)S(=O)(=O)c1ccccc1 (stereo not drawn) | C-C chemokine receptor type 5 (Homo sapiens, UniProt P51681) | > | 1000 |
| CN(CC(CCN1CCC2(CC1)CS(=O)(=O)c1ccccc12)C1CCCCC1)S(=O)(=O)c1ccccc1 (stereo not drawn) | C-C chemokine receptor type 5 (Homo sapiens, UniProt P51681) | > | 1000 |
| CN(CC(CCN1CCC(c2ccccc2)CC1)c1cccnc1)S(=O)(=O)c1ccccc1 (stereo not drawn) | C-C chemokine receptor type 5 (Homo sapiens, UniProt P51681) | > | 10000 |

* * *

Assembled from different publications: pIC50 for UniProt P51681.
pIC50: −log10 of the molar value.

| COMPOUND | TGT | VALUE_MODIFIER | pIC50 |
| --- | --- | --- | --- |
| Cc1ccc(-c2ccc3c(c2)C=C(C(=O)Nc2ccc(C[N+](C)(C)C4CCOCC4)cc2)CCO3)cc1 | UniProt P51681 | = | 8.85 |
| Cc1ncnc(C)c1C(=O)N1C[C@H]2CN(CCC(c3cccc(F)c3)C3CCN(S(=O)(=O)c4ccccc4)CC3)C[C@H]2C1 (some centres not stated) | UniProt P51681 | = | 7.42 |
| CN(C[C@@H](CCN1CCC2(CC1)C[S+]([O-])c1ccccc12)c1ccc(Cl)c(Cl)c1)S(=O)(=O)c1ccc(-c2ccccc2)cc1 (some centres not stated) | UniProt P51681 | = | 6.00 |
| Cc1ncnc(C)c1C(=O)N1C[C@H]2CN(CCC(c3ccccc3)C3CCN(S(C)(=O)=O)CC3)C[C@H]2C1 (stereo in doubt; 42) | UniProt P51681 | < | 6.30 |
| Cc1cc(C#N)nc(C)c1C(=O)N1CCC(C)(N2CCC(N3C(=O)N(C[C@H]4CC[C@H](O)CC4)C[C@H]3c3ccccc3)CC2)CC1 | UniProt P51681 | = | 7.48 |
| CN(CC(CCN1CCC(NC(=O)NCc2ccccc2)CC1)c1ccccc1)S(=O)(=O)c1ccccc1 (configuration not stated) | UniProt P51681 | = | 8.60 |
| C=CCN(C(=O)OCc1ccc([N+](=O)[O-])cc1)C1CCN(CCC(CC(C)S(=O)(=O)C(C)C)c2ccccc2)CC1 (configuration not stated) | UniProt P51681 | = | 4.82 |

* * *

Multiple publications report IC50 for UniProt:P51681; what follows is a combined list.
Note to self: IC50 under 80 nM means Condition met, ties and anything higher get Condition not met.

| COMPOUND | ASSIGNED_LABEL |
| --- | --- |
| CCCCC1CN(C(=O)OC2CCOCC2)CCC12CCN(C1(C)CCN(C(=O)c3c(C)ncnc3C)CC1)CC2 (configuration not stated) | Condition not met |
| CN(C[C@@H](CCN1CCC(c2ccccc2)CC1)c1cccc(Cl)c1)S(=O)(=O)c1ccccc1 | Condition not met |
| CN(C[C@@H](CCN1CCC2(CC1)C[S+]([O-])c1ccccc12)c1ccc(Cl)c(Cl)c1)S(C)(=O)=O (some centres not stated) | Condition not met |
| C[N+]1(Cc2ccc(NC(=O)C3=Cc4cc(-c5ccccc5)ccc4CC3)cc2)CCCC1 | Condition not met |
| CN(CC(CCN1CCC(c2ccccc2)CC1)c1ccccc1)S(=O)(=O)c1ccccc1 (configuration not stated) | Condition not met |
| CN(CC(CCN1CCC(c2ccccc2)CC1)c1cccc(C(F)(F)F)c1)S(=O)(=O)c1ccccc1 (configuration not stated) | Condition not met |
| CCCCC1C(=O)N(Cc2ccc(F)cc2)CCC12CCN(C1(C)CCN(C(=O)c3c(C)ncnc3C)CC1)CC2 (configuration not stated) | Condition met |
| CCCC[C@H]1CN(S(=O)(=O)CC(F)(F)F)CCC12CCN(C1(C)CCN(C(=O)c3c(C)ncnc3C)CC1)CC2 | Condition met |
| N=C(N)N/N=C/c1cc(Br)ccc1OCc1cccc(Cl)c1 | Condition not met |
| CCO[C@@H]1COCC[C@@H]1N[C@@H]1CC[C@@](C(=O)N2CCN(c3cccc(C(F)(F)F)c3)CC2)(C(C)C)C1 | Condition met |
| CCC(CC(CCN1CCC(N(CC)C(=O)OCc2ccccc2)CC1)c1ccccc1)S(=O)(=O)c1ccccc1 (configuration not stated) | Condition not met |
| Cc1ncnc(C)c1C(=O)N1C[C@H]2CN(CCC(c3ccccc3)C3CCN(CC(F)F)CC3)C[C@H]2C1 (some centres not stated) | Condition met |
| CN(C[C@@H](CCN1CCC2(CC1)C[S+]([O-])c1ccccc12)c1ccc(F)cc1)S(=O)(=O)c1ccccc1 (some centres not stated) | Condition not met |
| CC(C)[C@]1(C(=O)N2CCN(c3cccc(C(F)(F)F)c3)CC2)CC[C@@H](N[C@H]2CCOC[C@@H]2C)C1 | Condition not met |
| CC(C)[C@]1(C(=O)N2CCN(c3cccc(C(F)(F)F)c3)CC2)CC[C@@H](N[C@H]2CCOC[C@H]2C)C1 | Condition met |
| C[N+]1(CCc2ccc(NC(=O)C3=Cc4cc(-c5ccccc5)ccc4CC3)cc2)CCCCC1 | Condition not met |
| Cc1ncnc(C)c1C(=O)N1C[C@H]2CN(CCC(c3ccccc3)C3CCN(C(=O)NC(C)C)CC3)C[C@H]2C1 (some centres not stated) | Condition not met |
| O=C(N[C@@H](CCN1C[C@@H]2CN(C(=O)c3c(Cl)cccc3Cl)C[C@@H]2C1)c1ccccc1)C1CCCC1 | Condition met |
| Cc1ncnc(C)c1C(=O)N1C[C@H]2CN(CCC(c3ccccc3)C3CN(CC(F)(F)F)C3)C[C@H]2C1 (some centres not stated) | Condition not met |
| Cc1cccc(C)c1C(=O)N1C[C@H]2CN(CC[C@H](NC(=O)C3CCCC3)c3ccccc3)C[C@H]2C1 | Condition met |
| c1ccc(CNCc2ccc(CN(Cc3nc4ccccc4[nH]3)[C@H]3CCCc4cccnc43)cc2)nc1 | Condition not met |
| Cc1cccc(C)c1C(=O)N1C[C@H]2CN(CC[C@H](NC(=O)c3ccccc3)c3ccccc3)C[C@H]2C1 | Condition met |
| COc1cc(C)c(C(=O)N2C[C@H]3CN(CC[C@H](NC(=O)C4CCCC4)c4ccccc4)C[C@H]3C2)c(C)c1 | Condition met |
| Cc1ccccc1C(=O)N1CCC(N2CCN([C@@H](C)c3ccc(Cc4ccc5c(c4)OCO5)cc3)[C@@H](C)C2)CC1 | Condition not met |
| CN(C[C@@H](CCN1CCC2(CC1)C[S+]([O-])c1ccccc12)c1ccc(Cl)c(Cl)c1)S(=O)(=O)c1cn(C)cn1 (some centres not stated) | Condition not met |
| Cc1ncnc(C)c1C(=O)N1CCC(C)(N2CCC(N3C(=O)N(CC4CCN(S(C)(=O)=O)CC4)C[C@H]3c3ccccc3)CC2)CC1 | Condition met |
| CCCN(C(=O)OCc1ccccc1C)C1CCN(CC[C@H](CN(C)S(=O)(=O)c2ccccc2)c2ccccc2)CC1 | Condition met |
| CCOc1ccc(-c2ccc3c(c2)C=C(C(=O)Nc2ccc(C[N+](C)(C)C4CCOCC4)cc2)CCO3)cc1 | Condition met |
| CC1CCN(CC2(O)CCN(Cc3cc(Br)ccc3OCc3ccc(Cl)cc3)CC2)CC1 | Condition not met |
| CN(CC(CCN1CCC2(CC1)CS(=O)(=O)c1ccccc12)c1ccsc1)S(=O)(=O)c1ccccc1 (configuration not stated) | Condition met |
| CN(CC(CCN1CCC2(CC1)CS(=O)(=O)c1ccccc12)c1cc(Cl)cc(Cl)c1)S(=O)(=O)c1ccccc1 (configuration not stated) | Condition not met |
